Assay: HT29 colon tumor cell growth inhibition, primary screen, imaging, high content imaging, 72 h, CellTiter-Glo (AID 772)
Conditions: HCS imaging cell count, at 10 µM, stronger effect = higher value
Screen size: about 3,300 compounds; about 20 (0.6%) were called active. The sample as a whole holds a higher share of actives than the screen did.
Reported growth inhibition by item:

{"molecule.smiles": "CCOC(=O)c1c(SC)nc(SC)c2c1CCC2", "growth inhibition, %": -36.8}
{"molecule.smiles": "COn1c(SC2CCCCC2)nc2ccccc2c1=O", "growth inhibition, %": 52.3}
{"molecule.smiles": "C=CCn1cnc2c(c1=O)c1nc3ccccc3nc1n2-c1ccc(C)cc1", "growth inhibition, %": 31.2}
{"molecule.smiles": "CCOC(=O)c1[nH]c2ccc(OC)cc2c1NC(=O)CCN1CCC(C)CC1", "growth inhibition, %": 7.19}

---

Experiment: HT29 colon tumor cell growth inhibition, primary screen, imaging, high content imaging, 72 h, CellTiter-Glo (AID 772)
Conditions: HCS imaging cell count, measured here: ATP CellTiter-Glo viability, at 10 µM, stronger effect = higher value
About 20 (0.6%) of roughly 3,300 compounds were called active. The sample holds actives, similar compounds and a random draw of the others, so the mix is not that of the screen.
property.label: growth inhibition

{"molecule": "CC(=O)C1=C(NC(=O)c2ccccc2F)C[C@@H]2[C@H]1C2(C)C", "result": "-28.5%"}
{"molecule": "CCN(CC)CCOC(=O)c1c(C)n(C)c2ccc(OC)cc12", "result": "-23%"}
{"molecule": "Cc1cc(COc2ccccc2OCCN2CCN(C)CC2)no1", "result": "10.2%"}
{"molecule": "CCCSc1nc(C)c(CC(=O)O)c(=O)[nH]1", "result": "-21%"}
{"molecule": "c1ccc(Cc2nnc3n2CCCCC3)cc1", "result": "-46.4%"}
{"molecule": "CC(C)CC(NC(=O)OC(C)(C)C)C(=O)NCc1ccccc1 (centres undefined)", "result": "-13%"}
{"molecule": "CC(C)N=c1cc2n(-c3ccc(Cl)cc3)c3ccccc3nc-2cc1Nc1ccc(Cl)cc1", "result": "87%"}
{"molecule": "CCN(CC)CCCC1(CN)OCCc2ccccc21 (centres undefined)", "result": "-27.8%"}
{"molecule": "CCOC(=O)c1ccc(NC(=O)CCC(CC)C(=O)O)cc1 (centres undefined)", "result": "-22.9%"}
{"molecule": "O=C(CN1C(=O)c2ccccc2S1(=O)=O)NCCSCc1ccco1", "result": "6.94%"}
{"molecule": "CCN(CC)c1ccc2cc(-c3nnc(-c4ccncc4)o3)c(=O)oc2c1", "result": "-9.72%"}
{"molecule": "Cc1cc(=O)[nH]c(SCC(=O)c2ccccc2)c1C#N", "result": "-16.6%"}
{"molecule": "O=C1c2ccccc2C(=O)C1c1ccc2ccccc2n1", "result": "7.1%"}
{"molecule": "CO[C@H]1C[C@@H]2CC[C@@H](C)[C@@](O)(O2)C(=O)C(=O)N2CCCC[C@H]2C(=O)O[C@H]([C@H](C)C[C@@H]2CC[C@@H](O)[C@H](OC)C2)CC(=O)[C@H](C)C=C(C)[C@@H](O)[C@@H](OC)C(=O)[C@H](C)C[C@H](C)C=CC=CC=C1C", "result": "-4.98%"}
